- test.description: Paramagnetic relaxation properties in water at 10 MHz (0.15T), RADX spin analyzer
- Assay type: physicochemical
- test.settings: in water, 10 MHz (0.15T); calculated from T₂ and concentration
- Experimental: The paramagnetic relaxation properties of [manganese(II)·(H₂O)₂·(L-alanine)₂]⁺²(Cl₂)⁻² in water were measured at 10 MHz (0.15T) with a spin analyzer (RADX; Houston, TX) at 37°C. After thermal equilibrium, the spin-lattice (T₁) and spin-spin (T₂) relaxation values were measured in triplicate. The paramagnetic relaxation of the title compound in water was measured at 10 MHz (0.15T) with a spin analyzer (RADX; Houston, TX). […] Relaxivity was measured at 10 MHz (0.15T) as described in Example 10. […]
A collection of compounds and their measured millimolar relaxivity for T₂
State the answer as a number, implicitly in mM⁻¹ s⁻¹.

In [3]: df
Out[3]:
                                   compound  numeric_readout
0  CC(=O)[O-].C[C@H](N)C(=O)O.C[C@H](N)C(=O)O.C[C@H](N)C(=O)O.O.[I-].[Mn+2]             38.5

# compound NC(CO)C(=O)O.O.O.O.O=C([O-])C(O)C(O)C(O)C(O)CO.O=C([O-])C(O)C(O)C(O)C(O)CO.[Mn+2] (centres unmarked) ; its millimolar relaxivity for T₂ = 37.0

# compound "CC(C)[C@H](N)C(=O)O.CC(C)[C@H](N)C(=O)O.O.O.[Cl-].[Cl-].[Mn+2]" ; its millimolar relaxivity for T₂ = 39.7

# compound "O.O.O=C(O)[C@@H]1CCCN1.O=C(O)[C@@H]1CCCN1.[Cl-].[Cl-].[Mn+2]" ; its millimolar relaxivity for T₂ = 39.3

# compound "N=C(N)NCCC[C@H](N)C(=O)O.N=C(N)NCCC[C@H](N)C(=O)O.O.O.[Cl-].[Cl-].[Mn+2]" ; its millimolar relaxivity for T₂ = 10.6

# compound "N[C@@H](CC(=O)O)C(=O)O.N[C@@H](CC(=O)O)C(=O)O.O.O.[Cl-].[Cl-].[Mn+2]" ; its millimolar relaxivity for T₂ = 39.7

# compound "CSCC[C@H](N)C(=O)O.CSCC[C@H](N)C(=O)O.O.O.[Cl-].[Cl-].[Mn+2]" ; its millimolar relaxivity for T₂ = 38.2

# compound "C[C@@H](O)[C@H](N)C(=O)O.C[C@@H](O)[C@H](N)C(=O)O.O.O.[Cl-].[Cl-].[Mn+2]" ; its millimolar relaxivity for T₂ = 36.8

# compound "NCCCC[C@H](N)C(=O)O.NCCCC[C@H](N)C(=O)O.O.O.[Cl-].[Cl-].[Mn+2]" ; its millimolar relaxivity for T₂ = 39.7

Cited source for all entries: patent EP0308983A2
